B1: Far upstream element-binding protein 1, residues 98 to 169; numbered along this chain, Q96AE4 (parent)
chain: RSVMTEEYKVPDGMVGFIIGRGGEQISRIQQESGCKIQIAPDSGGLPERSCMLTGTPESVQSAKRLLDQIVE

# Variants of: B1
# experimental_protocol: abundance fitness (aPCA) (normalised: wild type 0, dead -1); higher = more abundant; growth selection in yeast, the domain comes from the species named
# details: Homo sapiens
observed_property: abundance fitness
Provide a numeric answer; units are not to be included.

See these solved cases before continuing.
mutant=P57C data_value=-0.111
mutant=I39L data_value=-0.081
mutant=K36Y data_value=-0.149
mutant=E72T data_value=0.05
mutant=A63V data_value=-0.246
mutant=E72W data_value=-0.008
mutant=T54Q data_value=-0.067
mutant=I39V data_value=-0.032
mutant=I70A data_value=0.062
mutant=G13F data_value=-0.123

Query :: I am curious: what abundance fitness value has been reported for E48M ?
Result :: -0.092

Query :: Please give the measured abundance fitness for this variant: S33G
Result :: -0.522

Query :: Looking for the measured abundance fitness of G13S , can you help?
Result :: 0.025
